The compounds listed here are annotated with their IC50.
- System: T47D cells
- Assay Comment: Cell-based assay: anti-proliferative activity, Cell Counting Kit-8, 72 hours (T47D)
- Recorded Conditions: Homo sapiens, T47D, 72 h
Where a name gives a salt, the structure may show the parent alone.
Metric Name: IC50

>>> reported_value("COc1cc(-c2ccc3ncc(C(=O)C4CC4)c(Nc4cccc(CCN(C)C)c4)c3c2)cc(Cl)c1O [Example 692]")
"1 µM"
>>> reported_value("CC(=O)c1cnc2ccc(-c3cc(Cl)c(O)c(Cl)c3)cc2c1Nc1cccc(CCN2CCN(C)CC2)c1 [Example 831]")
"1.1 µM"
>>> reported_value("COc1cc(-c2ccc3ncc(C(=O)C4CC4)c(-c4ccc(N5CCN(C)CC5)cc4)c3c2)cc(Cl)c1O [Example 438]")
"0.39 µM"
>>> reported_value("COc1cc(-c2ccc3ncc(C(C)=O)c(Nc4ccc(CN5CCN(C)CC5)cc4)c3c2)cc(Cl)c1O [Example 653]")
"1.3 µM"
>>> reported_value("CC1(N)CCC(Nc2c(C(=O)C3CC3)cnc3ccc(-c4cc(Cl)c(O)c(Cl)c4)cc23)CC1 (centres unmarked) [Example 638]")
"0.1 µM"
>>> reported_value("O=C(c1cnc2ccc(-c3cc(F)c(O)c(Cl)c3)cc2c1Nc1cnc(N2CCNCC2)nc1)C1CC1 [Example 496]")
"0.036 µM"
>>> reported_value("CN1CCN(C[C@H]2CC[C@H](Nc3c(C(=O)C4CC4)cnc4ccc(-c5cc(F)c(O)c(Cl)c5)cc34)CC2)CC1 [Example 636]")
"0.16 µM"
>>> reported_value("CC(=O)c1cnc2ccc(-c3cc(F)c(O)c(Cl)c3)cc2c1Nc1ccc(CN2CCN(C)CC2)cc1 [Example 656]")
"0.19 µM"
>>> reported_value("COc1cc(-c2ccc3ncc(C(C)=O)c(N[C@H]4CC[C@H](CN5CCC[C@H]5CO)CC4)c3c2)cc(Cl)c1O [Example 793]")
"0.15 µM"
>>> reported_value("CNC1CCCN(c2ccc(Nc3c(C(C)=O)cnc4ccc(-c5cc(F)c(O)c(Cl)c5)cc34)cn2)C1 (centres unmarked) [Example 815, trihydrochloride]")
"0.016 µM"
>>> reported_value("O=C(c1cnc2ccc(-c3cc(Cl)c(O)c(Cl)c3)cc2c1Nc1ccc(N2CCC(O)C2)nc1)C1CC1 (centres unmarked) [Example 670]")
"0.43 µM"
>>> reported_value("O=C(c1cnc2ccc(-c3cc(Cl)c(O)c(Cl)c3)cc2c1Nc1ccc(CN2CCC(F)(F)C2)cc1)C1CC1 [Example 581]")
"1.4 µM"
>>> reported_value("CC(=O)c1cnc2ccc(-c3cc(F)c(O)c(Cl)c3)cc2c1N[C@H]1CC[C@H](NC(=O)C2CCCN2C)CC1 (some centres unmarked) [Example 874, hydrochloride]")
"0.04 µM"
>>> reported_value("CN(C)Cc1ccc(Nc2c(C(=O)C3CC3)cnc3ccc(-c4cc(F)c(O)c(Cl)c4)cc23)nc1 [Example 435]")
"2.7 µM"

* * *

Measured IC50 by item
- Assay System: MELK (Homo sapiens, UniProt Q14680)
- Sequence (Q14680 whole entry, looked up): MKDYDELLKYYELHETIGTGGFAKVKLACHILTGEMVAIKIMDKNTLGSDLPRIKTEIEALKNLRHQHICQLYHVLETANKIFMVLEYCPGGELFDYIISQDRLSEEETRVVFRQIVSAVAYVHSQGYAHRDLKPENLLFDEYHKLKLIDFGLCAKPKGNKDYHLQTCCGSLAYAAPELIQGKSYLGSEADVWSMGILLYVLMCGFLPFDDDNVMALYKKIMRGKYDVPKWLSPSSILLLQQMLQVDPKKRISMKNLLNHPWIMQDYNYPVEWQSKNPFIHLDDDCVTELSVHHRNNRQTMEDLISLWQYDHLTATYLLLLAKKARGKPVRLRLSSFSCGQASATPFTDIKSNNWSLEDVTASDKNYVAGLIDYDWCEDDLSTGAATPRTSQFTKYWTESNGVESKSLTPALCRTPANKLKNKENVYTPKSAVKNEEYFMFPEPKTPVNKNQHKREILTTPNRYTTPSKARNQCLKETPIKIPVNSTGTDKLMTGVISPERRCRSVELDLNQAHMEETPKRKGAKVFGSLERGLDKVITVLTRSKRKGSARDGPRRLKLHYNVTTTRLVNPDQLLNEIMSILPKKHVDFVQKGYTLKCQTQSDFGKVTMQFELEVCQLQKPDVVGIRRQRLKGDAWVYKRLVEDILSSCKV
- Assay Comment: Kinase assay: MELK activity, phosphorylation of FITC-labeled histone H3 peptide measured by IMAP fluorescence polarization
- Type: biochemical
- Recorded Conditions: read-out: IC50 (μM) (kinase assay)
Metric Name: IC50 (µM)

>>> reported_value("COc1cc(-c2ccc3ncc(C(=O)C4CC4)c(N4CCN(C)CC4)c3c2)cc(Cl)c1O")
0.0088
>>> reported_value("O=C(c1cnc2ccc(-c3cc(Cl)c(O)c(Cl)c3)cc2c1Nc1ccc(NCCO)nc1)C1CC1")
0.011
>>> reported_value("COC1CCN(C2CCC(Nc3c(C(=O)C4CC4)cnc4ccc(-c5cc(Cl)c(O)c(Cl)c5)cc34)CC2)C1 (stereo not drawn)")
0.0018
>>> reported_value("CNC[C@H]1CC[C@H](Nc2c(C(=O)C3CC3)cnc3ccc(-c4cc(Cl)c(O)c(Cl)c4)cc23)CC1")
0.0016
>>> reported_value("CC(=O)c1cnc2ccc(-c3cc(F)c(O)c(Cl)c3)cc2c1N1CCN(C(=O)CN(C)C)CC1")
0.0069
>>> reported_value("CC(=O)c1cnc2ccc(-c3cc(Cl)c(O)c(Cl)c3)cc2c1N[C@H]1CC[C@H](CN2CCCC(N)C2)CC1 (stereo partly drawn)")
0.0018
>>> reported_value("CN1CCN(c2c(C(=O)C3CC3)cnc3ccc(-c4cc(F)c(O)c(Cl)c4)cc23)CC1")
0.025
>>> reported_value("CN(C)CCOc1ccc(Nc2c(C(=O)C3CC3)cnc3ccc(-c4cc(F)c(O)c(Cl)c4)cc23)cn1")
0.0069
>>> reported_value("CN(C)Cc1ccc(Nc2c(C(=O)C3CC3)cnc3c(F)cc(-c4cc(F)c(O)c(Cl)c4)cc23)cc1")
1.8
>>> reported_value("CC(=O)c1cnc2ccc(-c3cc(Cl)c(O)c(Cl)c3)cc2c1Nc1ccc(C(N)=O)cc1")
0.019
>>> reported_value("O=C(c1cnc2ccc(-c3cc(F)c(O)c(Cl)c3)cc2c1NC1CCNCC1)C1CC1")
0.0092
>>> reported_value("CC(=O)c1cnc2ccc(-c3cc(F)c(O)c(Cl)c3)cc2c1N[C@@H]1CC[C@@H](CN(C)C)C1")
0.011
>>> reported_value("NCCOc1ccc(Nc2c(C(=O)C3CC3)cnc3ccc(-c4cc(F)c(O)c(Cl)c4)cc23)cn1")
0.0055
>>> reported_value("CC(=O)c1cnc2ccc(-c3cc(Cl)c(O)c(Cl)c3)cc2c1N[C@H]1CC[C@H](CN2CCC[C@@H]2CO)CC1")
0.0017
>>> reported_value("COc1cc(-c2ccc3ncc(C(=O)C4CC4)c(Nc4cnn(C5CCNCC5)c4)c3c2)cc(Cl)c1O")
0.0022

* * *

Here the recorded log10(IC50) is given for each entry.
- Assay System: MELK (Homo sapiens, UniProt Q14680)
- Assay Comment: Kinase assay: MELK activity, phosphorylation of FITC-labeled histone H3 peptide measured by IMAP fluorescence polarization
- Assay type: biochemical
- Recorded Conditions: read-out: IC50 (μM) (kinase assay)
Structures can show the parent of a compound that is named as a salt.
Metric Name: log10(IC50) (log10 of the value in µM)

>>> reported_value("COc1cc(-c2ccc3ncc(C(C)=O)c(N[C@H]4CC[C@H](CN5CCN(C)CC5)CC4)c3c2)cc(Cl)c1O [Example 787, hydrochloride]")
-2.24
>>> reported_value("CC(=O)c1cnc2ccc(-c3cc(F)c(O)c(Cl)c3)cc2c1N[C@H]1CC[C@H](N)CC1")
-1.82
>>> reported_value("CCC(=O)c1cnc2ccc(-c3cc(Cl)c(O)c(OC)c3)cc2c1N[C@H]1CC[C@H](N(C)C)CC1")
-2.74
>>> reported_value("CC(=O)c1cnc2ccc(-c3cc(F)c(O)c(Cl)c3)cc2c1Nc1cnc(N2CCNCC2)nc1")
-2.32
>>> reported_value("CN[C@H]1CC[C@H](Nc2c(C(=O)C3CC3)cnc3ccc(-c4cc(F)c(O)c(Cl)c4)cc23)CC1")
-2.62
>>> reported_value("CN[C@H]1CC[C@H](Nc2c(C(=O)C3CC3)cnc3ccc(-c4cc(Cl)c(O)c(OC)c4)cc23)CC1")
-2.85
>>> reported_value("CC(=O)c1cnc2ccc(-c3cc(Cl)c(O)c(Cl)c3)cc2c1N[C@H]1CC[C@H](CN2CCC(N)C2)CC1 (some centres unmarked) [Example 779, hydrochloride]")
-2.77
>>> reported_value("COc1cc(-c2ccc3ncc(C(=O)C(C)C)c(N[C@H]4CC[C@H](N)CC4)c3c2)cc(Cl)c1O")
-2.15
>>> reported_value("COc1cc(-c2ccc3ncc(C(C)=O)c(N[C@@H]4CCC[C@@H](CN(C)C)C4)c3c2)cc(Cl)c1O")
-3.00
>>> reported_value("COc1cc(-c2ccc3ncc(C(=O)C4CC4)c(Nc4cnc(N5CCCC(N)C5)nc4)c3c2)cc(Cl)c1O (centres unmarked)")
-2.55
>>> reported_value("CCCC(=O)c1cnc2ccc(-c3cc(F)c(O)c(Cl)c3)cc2c1Nc1ccc(CN(C)C)cc1")
-1.80
>>> reported_value("O=C(c1cnc2ccc(-c3cc(Cl)c(O)c(Cl)c3)cc2c1NC1CCC(N2CCC(F)(F)C2)CC1)C1CC1 (centres unmarked)")
-0.85
>>> reported_value("COc1cc(-c2ccc3ncc(C(=O)C4CC4)c(Nc4ccc(C(N)=O)cc4)c3c2)cc(Cl)c1O")
-1.40
>>> reported_value("COc1cc(-c2ccc3ncc(C(=O)C4CC4)c(Nc4ccc(N5CCC[C@@H](N)C5)nc4)c3c2)cc(Cl)c1O")
-2.68

* * *

Parameter IC50: see the listing below.
- Tested on: HT-1197 cells
- Assay Comment: Cell-based assay: anti-proliferative activity, Cell Counting Kit-8, 72 hours (HT-1197, negative control without MELK expression)
- Recorded Conditions: Homo sapiens, HT1197, 72 h, HT1197 cells (negative control, no MELK expression), 72 hours
Structures can show the parent of a compound that is named as a salt.
Metric Name: IC50 (µM)

>>> reported_value("CN(C)CC(=O)N1CCN(c2c(C(=O)C3CC3)cnc3ccc(-c4cc(F)c(O)c(Cl)c4)cc23)CC1 [Example 442]")
5.5
>>> reported_value("CC(=O)c1cnc2ccc(-c3cnc(C#N)nc3)cc2c1N[C@H]1CC[C@H](CN(C)C)CC1 [Example 418]")
1.4
>>> reported_value("CCC(=O)c1cnc2ccc(-c3cc(F)c(O)c(Cl)c3)cc2c1Nc1ccc(CN(C)C)cc1 [Example 770]")
0.84
>>> reported_value("CCN(CC)C1CCC(Nc2c(C(=O)C3CCCC3)cnc3ccc(-c4ccc(O)c(Cl)c4)cc23)CC1 (stereo not drawn) [Example 385]")
1.9
>>> reported_value("CCN(CC)C[C@H]1CC[C@H](Nc2c(C(C)=O)cnc3ccc(-c4cc(Cl)c(O)c(Cl)c4)cc23)CC1 [Example 790]")
4.2
>>> reported_value("CN1CCN(Cc2ccc(Nc3c(C(=O)C4CC4)cnc4ccc(-c5ccc(O)c(Cl)c5)cc34)cc2)CC1 [Example 406]")
3.4
>>> reported_value("CC(C)C(=O)c1cnc2ccc(-c3cc(Cl)c(O)c(Cl)c3)cc2c1Nc1ccc(CN(C)C)cc1 [Example 641]")
0.74
>>> reported_value("CC(=O)c1cnc2ccc(-c3cc(Cl)c(O)c(Cl)c3)cc2c1N[C@H]1CCC[C@H](CCN(C)C)C1 [Example 861, hydrochloride]")
1
>>> reported_value("COc1cc(-c2ccc3ncc(C(=O)C4CC4)c(NC4CCNCC4)c3c2)cc(Cl)c1O [Example 727]")
1.1
>>> reported_value("CN(C)C[C@H]1CC[C@H](Nc2c(S(C)(=O)=O)cnc3ccc(-c4cc(F)c(O)c(Cl)c4)cc23)CC1 [Example 423]")
2.4
>>> reported_value("CC(=O)c1cnc2ccc(-c3cc(Cl)c(O)c(Cl)c3)cc2c1N[C@H]1CC[C@H](CN2CCC(N)C2)CC1 (stereo partly drawn) [Example 779, hydrochloride]")
10
>>> reported_value("CCC(=O)c1cnc2ccc(-c3cc(Cl)c(O)c(OC)c3)cc2c1Nc1ccc(N2CCC(N)C2)nc1 (stereo not drawn) [Example 775]")
0.75
>>> reported_value("CC(=O)c1cnc2ccc(-c3cc(F)c(O)c(Cl)c3)cc2c1N[C@H]1CC[C@H](CN2CCC[C@H]2CO)CC1 [Example 844]")
3.3
>>> reported_value("CC(=O)c1cnc2ccc(-c3cc(Cl)c(O)c(Cl)c3)cc2c1Nc1ccc(CCN(C)C)cc1 [Example 744]")
0.43
>>> reported_value("C[S+]([O-])c1cnc2ccc(-c3cc(F)c(O)c(Cl)c3)cc2c1N[C@H]1CC[C@H](N)CC1 (stereo partly drawn) [Example 498]")
10
